target: T1, human PCSK9 (proprotein convertase subtilisin kexin type 9) (human, UniProt Q8NBP7 31-692); assay: BLI, biotinylated hPCSK9 on sensor tips
T1 construct: Directly immobilized (SPR ProteOn), biotinylated (BLI), or in solution, depending on the assay; also called hPCSK9
T1 sequence (Q8NBP7 31-692 limits assumed): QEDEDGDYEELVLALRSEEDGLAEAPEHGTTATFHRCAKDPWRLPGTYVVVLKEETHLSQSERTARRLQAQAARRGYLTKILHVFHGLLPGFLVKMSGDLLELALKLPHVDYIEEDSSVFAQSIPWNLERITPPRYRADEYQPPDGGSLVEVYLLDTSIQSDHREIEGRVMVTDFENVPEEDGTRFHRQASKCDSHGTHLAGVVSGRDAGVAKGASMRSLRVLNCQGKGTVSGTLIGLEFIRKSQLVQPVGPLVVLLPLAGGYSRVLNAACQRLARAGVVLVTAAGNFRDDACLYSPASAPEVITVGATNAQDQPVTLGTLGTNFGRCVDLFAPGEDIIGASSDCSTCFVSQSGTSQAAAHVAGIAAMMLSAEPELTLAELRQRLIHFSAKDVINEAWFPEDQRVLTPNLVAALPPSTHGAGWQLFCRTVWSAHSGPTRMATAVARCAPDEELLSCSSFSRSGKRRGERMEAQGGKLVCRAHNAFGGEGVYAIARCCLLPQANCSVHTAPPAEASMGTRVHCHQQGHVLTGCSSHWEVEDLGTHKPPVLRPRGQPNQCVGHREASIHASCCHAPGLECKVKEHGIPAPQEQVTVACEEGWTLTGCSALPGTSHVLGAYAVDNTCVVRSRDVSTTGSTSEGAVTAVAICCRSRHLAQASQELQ
readout_name: koff (s⁻¹)
# unit: s⁻¹ | format: bare number

// worked examples, koff included
2382C09 (designed binder, Anti-PCSK9 Adnectin, His6-tagged) MGVSDVPRDLEVVAATPTSLLISWDAPAEGYGYYRITYGETGGNSPVQEFTVPVSKGTATISGLKPGVDYTITVYAVEFDFPGSGYYHRPISINYRTEIDKPSQHHHHHH : 0.000233
2382B10 (designed binder, Anti-PCSK9 Adnectin, His6-tagged) MGVSDVPRDLEVVAATPTSLLISWDAPADAYGYYRITYGETGGNSPVQEFTVPSSKGTATISGLKPGVDYTITVYAVEYDFPGSGYYHRPISINYRTEIDKPSQHHHHHH : 0.000977
1922G04 (designed binder, Anti-PCSK9 Adnectin, His6-tagged; also called ATI001057; ATI-1057) MGVSDVPRDLEVVAATPTSLLISWRPPSHAYGYYRITYGETGGNSPVQEFTVPIGKGTATISGLKPGVDYTITVYAVEYPWKGSGYYHRPISINYRTEIDKPSQHHHHHH : 0.00014
2381H09 (designed binder, Anti-PCSK9 Adnectin, His6-tagged) MGVSDVPRDLEVVAATPTSLLISWDAPAGGGYGYYRITYGETGGNSPVQEFTVPVSKGTATISGLKPGVDYTITVYAVEFDFVGAGYYHRPISINYRTEIDKPSQHHHHHH : 0.00046
2451H07 (designed binder, Anti-PCSK9 Adnectin, His6-tagged) MGITDVPRDLEVVAATPTSLLISWNPPDVNYGYYRITYGETGGNSPLQEFTVPVSKGTATISGLKPGVDYTITVYAVEYPYAHAGYYHRPISINYRTEIDKPSQHHHHHH : 0.00094

Then this binder:
# input GET /values?readout=koff&item= 2382C05 (designed binder, Anti-PCSK9 Adnectin, His6-tagged) MGVSDVPRDLEVVAATPTSLLISWDAPADGAYGYYRITYGETGGNSPVQEFTVPVSKGTATISGLKPGVDYTITVYAVEYSFPGAGYYHRPISINYRTEIDKPSQHHHHHH
# output 0.000879
